Biological target: Enoyl-[acyl-carrier-protein] reductase [NADH] (Mycobacterium tuberculosis, UniProt P9WGR1)
Sequence (P9WGR1 whole entry): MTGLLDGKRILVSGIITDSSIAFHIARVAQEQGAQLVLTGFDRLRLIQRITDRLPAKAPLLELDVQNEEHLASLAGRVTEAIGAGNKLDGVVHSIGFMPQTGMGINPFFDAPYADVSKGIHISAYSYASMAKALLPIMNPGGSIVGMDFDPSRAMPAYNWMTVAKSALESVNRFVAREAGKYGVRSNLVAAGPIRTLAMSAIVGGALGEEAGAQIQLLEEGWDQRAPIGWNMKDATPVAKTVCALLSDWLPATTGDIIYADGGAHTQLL
Test: Inhibition of recombinant Mycobacterium tuberculosis InhA expressed in Escherichia coli […] pLysS using trans-2-decenoyl-N-acetylcysteamine as substrate by spectrophotometric method
READOUT_NAME: IC50 (µM)
Lab book: enter the figure in µM, no units written.

Task: State, in one line, measured IC50 of `COc1ccc(/C=C2/SC(=S)N(CC(=O)c3ccccc3)C2=O)cc1`
Result: 8.24

Task: Supply reported IC50 belonging to this molecule: `O=C(CN1C(=O)/C(=C\c2ccccc2Cl)SC1=S)c1ccccc1`
Result: 25.8

Task: Supply reported IC50 belonging to this molecule: `CN(C)c1ccc(/C=C2/SC(=S)N(CC(=O)c3ccccc3)C2=O)cc1`
Result: 17.4

Task: Annotate the molecule `COc1ccc(C(=O)CN2C(=O)/C(=C\c3cc(OC)c(OC)c(OC)c3)SC2=S)cc1` with its measured IC50.
Result: 2.55

Task: Let me know recorded IC50 for `COc1ccc(C(=O)CN2C(=O)/C(=C\c3ccc(C)cc3)SC2=S)cc1` , thanks.
Result: 5.02

Task: Please report IC50 for the following molecule: `O=C(CN1C(=O)/C(=C\c2ccccc2)SC1=S)c1ccccc1`
Result: 40.2

Task: Identify measured IC50 corresponding to `COc1ccc(C(=O)CN2C(=O)/C(=C\c3ccc(Cl)cc3)SC2=S)cc1`
Result: 16.5

Task: Determine from records and report IC50 for `O=C(CN1C(=O)/C(=C\c2ccc(O)cc2)SC1=S)c1ccccc1`
Result: 35.3

Task: Provide measured IC50 value, entry: `COc1ccc(C(=O)CN2C(=O)/C(=C\c3ccc(Br)cc3)SC2=S)cc1`
Result: 12.1

Task: Please supply the value of reported IC50 for the item `COc1ccccc1/C=C1/SC(=S)N(CC(=O)c2ccccc2)C1=O`
Result: 28.1

Task: Return reported IC50. Input molecule: `COc1ccc(C(=O)CN2C(=O)/C(=C\c3ccccc3OC)SC2=S)cc1`
Result: 16.8

Task: Specify IC50 for `Cc1ccc(/C=C2/SC(=S)N(CC(=O)c3ccccc3)C2=O)cc1` and stop.
Result: 17.5

Task: Give the reported value of IC50 for this record: `O=C(CN1C(=O)/C(=C\c2ccc(F)cc2)SC1=S)c1ccccc1`
Result: 55

Task: For `COc1cc(/C=C2/SC(=S)N(CC(=O)c3ccccc3)C2=O)cc(OC)c1OC` , write its IC50.
Result: 3.12
